Data provenance: ChEMBL document CHEMBL1201862

- PROCEDURE TEXT: P. falciparum Dd2 growth inhibitors, dose response, SYBR Green, cherry-picked samples (AID 1159567)
- Assay type: functional, cell-based
Calls of active or inactive are those of the source. Cut-off read from the data, not from the text of the source: actives have a measured AC50 and inactives only a lower limit.
TEST READOUT: AC50

Use these answered entries as a reference point.
COc1cccc(C#Cc2ccc([C@@H]3[C@@H](CO)N4C(=O)CN(C(=O)c5ccccc5)C[C@@H]34)cc2)c1
2.3 µM (active)
CCCN1CCC2(CC1)CN(Cc1ccccc1OC)[C@H](CO)c1c2c2ccc(OC)cc2n1C
2.22 µM (active)
CO[C@@H]1CN(C)C(=O)c2cc(NC(=O)c3nc4ccccc4s3)ccc2OC[C@@H](C)N(Cc2ccncc2)C[C@H]1C
5.88 µM (active)

Enquiry: Which AC50 value belongs to O=C(Nc1ccccc1)N1CCCCN2[C@H](CO)[C@H](c3ccc(C#Cc4ccccc4)cc3)[C@@H]2C1 ?
Return: < 0.3 µM (active)
